- system under test: phosphodiesterase IX (Homo sapiens (Human), UniProt O76083)
- Sequence (O76083 whole entry): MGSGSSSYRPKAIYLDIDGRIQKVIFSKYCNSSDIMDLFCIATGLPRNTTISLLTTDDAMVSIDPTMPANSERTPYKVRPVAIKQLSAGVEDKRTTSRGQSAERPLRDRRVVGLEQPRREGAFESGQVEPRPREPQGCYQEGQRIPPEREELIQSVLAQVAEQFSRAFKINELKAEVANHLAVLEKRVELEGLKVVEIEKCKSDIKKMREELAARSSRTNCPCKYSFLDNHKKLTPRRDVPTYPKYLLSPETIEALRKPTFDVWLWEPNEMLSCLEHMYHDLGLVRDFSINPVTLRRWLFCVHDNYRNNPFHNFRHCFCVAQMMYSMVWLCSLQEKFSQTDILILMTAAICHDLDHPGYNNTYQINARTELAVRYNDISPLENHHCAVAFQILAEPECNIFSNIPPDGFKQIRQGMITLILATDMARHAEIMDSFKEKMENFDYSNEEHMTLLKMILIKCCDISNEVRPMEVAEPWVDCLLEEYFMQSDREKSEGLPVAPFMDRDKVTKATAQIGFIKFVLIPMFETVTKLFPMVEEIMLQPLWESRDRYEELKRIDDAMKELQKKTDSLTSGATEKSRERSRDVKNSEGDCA
measured attribute: IC50 (nM)
Give your result in nM as a bare value.

q: Request body: readout IC50, system phosphodiesterase IX (Homo sapiens (Human), UniProt O76083), query COc1ccc(NC(=O)C(C)Nc2nc3c(cnn3-c3ccccc3Cl)c(=O)[nH]2)cc1 (stereo not shown) [WYQ-94-D] . Return the value.
a: 6
